Where do the numbers come from? From ChEMBL document CHEMBL1201862.

Test system: SK-MEL-2
Assay: NCI tumour cell line growth inhibition, 48 h
Calls of active or inactive are those of the source. No stated cut-off is given here; in the data, active = GI50 up to about 1.1 µM and inactive = higher.
Exercise: for every item that follows, state its recorded GI50.

In the examples that follow, each entry is paired with its recorded GI50.
- COc1ccc(C2C3=C(Nc4ncnn42)c2ccccc2OC3c2ccccc2)cc1 (centres undefined): 6 µM (inactive)
- C=C1C(=O)OC2C3C(=C)[C@@H](OC(C)=O)CC3C(C)=CC(OC(=O)C(C)(O)C(C)OC(C)=O)[C@@H]12 (some centres undefined): 4.98 µM (inactive)
- COc1ccc2c(c1)c1c3c(ccc4ncn2c43)N(CCN(C)C)CCN=1: 1.03 µM (active)
- Clc1ccc(Cc2nc3cc(CCN4CCN(c5ccccc5)CC4)ccc3[nH]2)cc1: 15 µM (inactive)
- Cc1cc2c(nn1)CCc1c-2no[n+]1[O-]: 50.1 µM (inactive)

Please state GI50 for every compound in the list that follows.
1. O=c1c2cc(S(=O)(=O)O)ccc2nc(COc2ccc(Oc3ccc(Cl)cc3Cl)cc2)n1C(=S)Nc1ccc(Cl)cc1
2. CN(C)CCNC(=O)c1cc([N+](=O)[O-])cc2ccc(-c3ccccc3)nc12
3. CN(C)CCCNC(=O)c1cc(NC(=O)c2cc(NC(=O)[C@H]3C[C@@H]3C(=O)Nc3cc(C(=O)Nc4cc(C(=O)NCCCN(C)C)n(C)c4)n(C)c3)cn2C)cn1C
4. CCOC(=O)C1(C(=O)OCC)CC=C(C)CC12C(=O)Nc1ccccc12 (centres undefined)

Result:
["18.4 µM (inactive)", "19.3 µM (inactive)", "> 100 µM (inactive)", "> 100 µM (inactive)"]
